assay: CRL2098 osteosarcoma cell growth inhibition, synergistic combos for chromothripsis tumors, BGB or cisplatin IC20 combos (AID 1671454); conditions: CRL2098 osteosarcoma cells, drug combinations, measured here: combination with cisplatin at IC20, at 0.5 µM, stronger effect = higher value;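 further: cells exposed for 96 h before readout; 0% = vehicle DMSO and 100% = killing by high DMSO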
inhibition listing for selected compounds.

| Structure string | Result unit | inhibition |
| --- | --- | --- |
| CC(C)N=c1cc2n(-c3ccc(Cl)cc3)c3ccccc3nc-2cc1Nc1ccc(Cl)cc1 | % | -130 |
| O=C(Nc1ccccc1)c1ccccc1O | % | 4.38 |
| O=c1ncccn1[C@@H]1O[C@H](CO)[C@@H](O)[C@H]1O | % | -120 |
| Cc1c(-c2cnccn2)ssc1=S | % | -109 |
| CCc1c2c(nc3ccc(O)cc13)-c1cc3c(c(=O)n1C2)COC(=O)[C@]3(O)CC | % | 37.4 |
| O=c1cc(-c2cccc3c2Sc2ccccc2S3)oc(N2CCOCC2)c1 | % | -36.1 |

* * *

assay: sensitizers of A549 cells to miR-34 induction, primary screen, imaging, A549 dox-inducible miR-34, nuclei and caspase counts (AID 1347080); conditions: A549 miR-34 inducible, Hoechst nuclei count, 48 h; measured here: total cells without miR-34 induction
Binary call on cell count with cut-off 10000: strictly below means 1, and equality or higher means 0.

| Compound | Discrete label |
| --- | --- |
| O=C1CN(N=Cc2ccc([N+](=O)[O-])o2)C(=O)N1 | 0 |
| CC1(C)C2CCC1(CS(=O)(=O)O)C(=O)/C2=C\c1ccc(/C=C2\C(=O)C3(CS(=O)(=O)O)CCC2C3(C)C)cc1 | 1 |
| CCOC(=O)C1=C(N)Oc2ccc(Br)cc2C1C(C#N)C(=O)OCC (configuration not stated) | 1 |
| CC1(C)C2CC[C@]3(C)C(C(=O)C=C4[C@@H]5C[C@@](C)(C(=O)O)CC[C@]5(C)CC[C@]43C)[C@@]2(C)CC[C@@H]1OC(=O)CCC(=O)O (some centres not stated) | 0 |
| CC(=O)C1C(=O)C=C(C)OC1=O (configuration not stated) | 1 |
| CC1(C)O[C@@H]2CC3C4C[C@H](F)C5=CC(=O)CC[C@]5(C)C4[C@@H](O)C[C@]3(C)[C@]2(C(=O)CO)O1 (some centres not stated) | 1 |
| CC1CC2C3CCC4=CC(=O)C=C[C@]4(C)[C@@]3(F)[C@@H](O)C[C@]2(C)[C@@]1(O)C(=O)CO (some centres not stated) | 1 |
| O=C(/C=C/c1c(C(=O)O)[nH]c2cc(Cl)cc(Cl)c12)Nc1ccccc1 | 1 |
| COc1cc(NS(C)(=O)=O)ccc1Cc1c2ccccc2nc2ccccc12 | 1 |
| CC1C/C=C/C=C/C=C/C=C/C(O[C@@H]2O[C@H](C)[C@@H](O)[C@H](N)[C@@H]2O)CC2OC(O)(CC(O)CC3OC3/C=C/C(=O)O1)CC(O)C2C(=O)O (some centres not stated) | 0 |
| CSCC[C@H](NC(=O)[C@H](Cc1c[nH]c2ccccc12)NC(=O)[C@H](C)NC(=O)OC(C)(C)C)C(=O)N[C@@H](CC(=O)O)C(=O)N[C@@H](Cc1ccccc1)C(N)=O | 1 |
| C#C[C@]1(OC(C)=O)CCC2C3CCC4=CC(=O)CC[C@@H]4C3CC[C@@]21C (some centres not stated) | 0 |
| CC(C)C1CCC(C(=O)N[C@@H](Cc2ccccc2)C(=O)O)CC1 (some centres not stated) | 0 |
| C[C@H](NC(=O)Cc1cc(F)cc(F)c1)C(=O)N[C@H](C(=O)OC(C)(C)C)c1ccccc1 | 1 |

* * *

test: inhibition of 3D7 malaria parasite growth – strain 3D7 (AID 2306);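 further: 0% = DMSO wells and 100% = chloroquine plus artemisinin control wells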; settings: P. falciparum 3D7 erythrocytic growth, LDH absorbance, 72 h; at 2 µM; stronger effect = higher value
The following molecules are shown together with reported growth inhibition values.

| Structure string | Result unit | growth inhibition |
| --- | --- | --- |
| O=C(Nc1cccc(-c2nn3ncccc3c2-c2ccnc(Nc3ccccc3)n2)c1)c1c(F)cccc1F | % | 98 |
| N=C(N)CCN(Cc1ccc(Cl)cc1)c1ccc(Cl)cc1 | % | 96 |
| CC(C)(CNC(=O)[C@H]1CCCCN1)c1nc(-c2ccc(Cl)c(O)c2)c(-c2ccncc2)[nH]1 | % | 98 |
| COc1ccc(Nc2ncc3c(-c4cccc(NC(=O)Cc5ccc(O)cc5)c4)c[nH]c3n2)cc1OC | % | 102 |
| COc1ccccc1NC(=O)Nc1cccc(-c2ccc(-c3nc4c(C)cccc4[nH]3)s2)c1 | % | 100 |
| Fc1ccc2nc(-c3ccc(-c4ccc(CN5CCN(CCN6CCOCC6)CC5)cc4)s3)[nH]c2c1 | % | 99 |
| O=C(NCCN1CCC(c2ccncc2)CC1)c1cccc(Nc2nccc(Nc3ccc(Oc4ccccc4)cc3)n2)c1 | % | 101 |
| CC(C)c1ccc(Cn2cc(-c3ccncc3)c3cc(OCc4ccccc4)ccc32)cc1 | % | 99 |
| N#Cc1cccc(C(=O)Nc2ccc(-c3cccc(CN4CCC(O)CC4)c3)cc2)c1 | % | 100 |
| Cc1ccc(C)c2sc(N3CCN(C(=O)c4ccc([N+](=O)[O-])o4)CC3)nc12 | % | 96 |
| Cn1nc(C(F)(F)F)c(-c2ccc(F)cc2)c1NC(=O)Nc1ccccc1 | % | 101 |
| Fc1cc(Cl)ccc1Nc1ccnc2cc(-c3ccc(CNCCN4CCOCC4)o3)ccc12 | % | 101 |
| O=C(Cn1c(CCc2cccc(F)c2F)nc(=O)c2ccccc21)N(CCN1CCCC1)Cc1ccc(-c2ccc(C(F)(F)F)cc2)cc1 | % | 101 |
| Cc1cc(F)ccc1-c1nc(N(C)CCN(C)C(=O)N(C)c2ccccc2)nc2c1ccc(=O)n2-c1c(F)cccc1F | % | 87 |
| NC(=O)c1sc(-n2cnc3ccc(C(=O)NCCN4CCOCC4)cc32)cc1OCc1ccccc1C(F)(F)F | % | 81 |
| Cc1sc(C)c(CNCCCNc2cc(=O)c3ccccc3[nH]2)c1Br | % | 93 |
| O=C(Nc1nccs1)c1sc2ccccc2c1O | % | 96 |
| CNC(=O)c1cc(S(=O)(=O)N2CCN(c3ccccn3)CC2)c(C)s1 | % | 91 |
| CCn1c(-c2nonc2N)nc2c(-c3ccc(CO)o3)ncc(OCCCN)c21 | % | 93 |

* * *

system: R275C/beta4; test: modulators of BK channel variants, profiling panel, selectivity assay, cell-based, U2OS BacMam, thallium flux, beta subunits (AID 1259406); details: at 30 µM;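 further: initial slope of Thallos dye fluorescence rise after thallium is added; log ratio against the mean of 0.3% DMSO vehicle wells on the same plate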
Labelling: log fold change Tl+ flux reported below 0.004 becomes MET; at or above becomes NOT MET.

| Compound | Discrete label |
| --- | --- |
| O=S(=O)(Cc1nc(C=Cc2cc(C(F)(F)F)cc(C(F)(F)F)c2)no1)c1ccc(Cl)cc1 | MET |
| COc1cccc(N2CC(=O)N(NC(=O)NC3CCCCC3)CC2=O)c1 | MET |
| O=C1c2c(O)cc(O)cc2O[C@H](c2ccc(O)c(O)c2)[C@H]1O | NOT MET |
| COc1ccccc1NC(=S)NNC(=O)CSc1ccccc1[N+](=O)[O-] | MET |
| Cc1ccc(C(C)NC(=O)c2ccc(Cl)c(Cl)c2)c(C)c1 (stereo not drawn) | NOT MET |
| CC(=O)NC[C@H]1CN(c2ccc(N3CCOCC3)c(F)c2)C(=O)O1 | NOT MET |
| CCCCCc1c(C)nc(-c2ccccn2)[nH]c1=O | NOT MET |
| O=C(NC1CCSC1)c1ccccc1NS(=O)(=O)c1ccccc1 (stereo not drawn) | MET |
| CCOC(=O)C(C#N)=CNc1ccccc1OC(F)(F)F | MET |
| Nc1ccc2cn[nH]c2c1 | MET |
| O=C(NCCSCc1ccco1)c1cncc(Br)c1 | MET |
| CC1CNc2c(cccc2S(=O)(=O)N[C@@H](CCCN=C(N)N)C(=O)N2CC[C@@H](C)C[C@@H]2C(=O)O)C1 (stereo partly drawn) | MET |
| Cc1onc(-c2ccccc2)c1C(=O)NC1C(=O)N2C1SC(C)(C)C2C(=O)O (stereo not drawn) | MET |
| O=C(CN1c2ccccc2Sc2ccccc21)NN=Cc1ccco1 | NOT MET |
| Cc1onc(-c2c(Cl)cccc2Cl)c1C(=O)NOC(=O)c1cccs1 | NOT MET |
| C#Cc1cccc(NS(=O)(=O)c2ccc(Cl)c(Cl)c2)c1 | NOT MET |
| COC(=O)C(O)(c1ccc(NC(=O)c2ccc(Cl)c(Cl)c2)cc1)C(F)(F)F (stereo not drawn) | NOT MET |
| O=C(CNc1cc(C(F)(F)F)cc(C(F)(F)F)c1)c1ccc(Cl)cc1 | NOT MET |
| O=C(O)c1ccccc1C(=O)NCc1ccccc1OC(F)(F)F | MET |
| CCOC(=O)c1sc(SC)nc1N | MET |
| COc1ccc2[nH]c(S(=O)Cc3ncc(C)c(OC)c3C)nc2c1 (stereo not drawn) | NOT MET |
| CCOC(=O)c1ccc(-n2sccc2=O)cc1 | NOT MET |
| CC12CCC(c3c1nn(-c1ccccc1)c3C(F)(F)F)C2(C)C (stereo not drawn) | MET |
